Where do these numbers come from? They come from ChEMBL document CHEMBL2390893.

target: Carbonic anhydrase 4 (Homo sapiens)
Sequence (P22748 whole entry): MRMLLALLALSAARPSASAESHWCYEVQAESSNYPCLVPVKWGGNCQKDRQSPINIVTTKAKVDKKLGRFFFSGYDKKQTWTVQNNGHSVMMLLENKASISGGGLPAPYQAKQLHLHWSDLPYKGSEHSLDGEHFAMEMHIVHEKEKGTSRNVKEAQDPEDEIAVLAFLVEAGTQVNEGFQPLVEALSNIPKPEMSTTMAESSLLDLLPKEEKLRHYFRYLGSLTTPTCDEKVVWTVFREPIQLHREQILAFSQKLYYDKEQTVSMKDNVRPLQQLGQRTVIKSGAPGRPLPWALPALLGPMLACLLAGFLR
pKi: −log10 of the molar value.
Measurement name: pKi

Smiles input | Measurement name | Endpoint value
O=C1C=CC[C@H](C[C@@H](O)CCc2ccc(O)cc2)O1 | pKi | 5.02
O=C1C=CC[C@H](C[C@@H](O)CCc2ccc(O)cc2O)O1 | pKi | 5.39

----------
target: Carbonic anhydrase 5B, mitochondrial (Homo sapiens)
Sequence (Q9Y2D0 whole entry): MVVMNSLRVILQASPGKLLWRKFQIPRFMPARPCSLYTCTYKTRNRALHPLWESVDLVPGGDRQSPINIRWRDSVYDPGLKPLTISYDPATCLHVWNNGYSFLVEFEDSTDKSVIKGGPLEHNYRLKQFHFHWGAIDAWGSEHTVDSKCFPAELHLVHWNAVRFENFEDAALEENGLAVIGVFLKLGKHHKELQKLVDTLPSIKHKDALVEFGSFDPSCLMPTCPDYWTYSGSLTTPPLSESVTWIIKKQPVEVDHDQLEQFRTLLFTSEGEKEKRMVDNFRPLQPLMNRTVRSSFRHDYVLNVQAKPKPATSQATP
pKi: −log10 of the molar value.
Measurement name: pKi

Smiles input | Measurement name | Endpoint value
O=C1C=CC[C@H](C[C@@H](O)CCc2ccc(O)cc2O)O1 | pKi | 4.86

----------
target: Carbonic anhydrase 1 (Homo sapiens)
Sequence (P00915 whole entry): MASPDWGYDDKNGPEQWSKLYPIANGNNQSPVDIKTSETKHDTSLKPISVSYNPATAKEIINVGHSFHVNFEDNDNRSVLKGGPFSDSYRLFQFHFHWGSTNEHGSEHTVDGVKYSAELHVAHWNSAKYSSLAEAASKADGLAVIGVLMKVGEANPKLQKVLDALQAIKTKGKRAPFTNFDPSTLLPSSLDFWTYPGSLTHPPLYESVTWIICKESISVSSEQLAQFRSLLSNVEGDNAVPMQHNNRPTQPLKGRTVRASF

Smiles input | Uom | Ki
O=C1C=CC[C@H](C[C@H](F)CCc2ccc(O)cc2)O1 | nM | 130

----------
biological target: Carbonic anhydrase 5A, mitochondrial (Homo sapiens, UniProt P35218)
Sequence (P35218 whole entry): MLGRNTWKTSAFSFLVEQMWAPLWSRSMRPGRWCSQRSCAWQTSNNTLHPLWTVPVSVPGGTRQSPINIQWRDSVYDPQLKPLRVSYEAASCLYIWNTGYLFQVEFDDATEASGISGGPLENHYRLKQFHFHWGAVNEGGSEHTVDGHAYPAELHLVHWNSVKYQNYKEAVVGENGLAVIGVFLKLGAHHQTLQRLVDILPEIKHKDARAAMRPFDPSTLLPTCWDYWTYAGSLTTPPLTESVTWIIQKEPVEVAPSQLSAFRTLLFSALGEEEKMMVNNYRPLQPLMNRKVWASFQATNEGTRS
pKi: −log10 of the molar value.

Smiles input | pKi
O=C1C=CC[C@H](C[C@@H](O)CCc2cc(Br)c(O)cc2Br)O1 | 5.07

----------
biological target: Carbonic anhydrase 14 (Homo sapiens, UniProt Q9ULX7)
Sequence (Q9ULX7 whole entry): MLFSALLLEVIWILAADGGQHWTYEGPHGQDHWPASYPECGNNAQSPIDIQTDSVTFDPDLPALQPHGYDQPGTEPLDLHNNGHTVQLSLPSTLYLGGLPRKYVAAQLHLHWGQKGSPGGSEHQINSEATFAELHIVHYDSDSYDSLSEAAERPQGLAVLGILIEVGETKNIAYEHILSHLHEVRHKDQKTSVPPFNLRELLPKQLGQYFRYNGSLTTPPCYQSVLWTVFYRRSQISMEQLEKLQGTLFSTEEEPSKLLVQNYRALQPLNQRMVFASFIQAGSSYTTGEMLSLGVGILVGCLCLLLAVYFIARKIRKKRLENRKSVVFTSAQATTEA
pKi: −log10 of the molar value.

Smiles input | Experimental system | pKi
O=C1C=CC[C@H](C[C@@H](O)CCc2ccc(O)cc2O)O1 | Carbonic anhydrase 14 (Homo sapiens, UniProt Q9ULX7) | 5.14

----------
Please consider the recorded pKi for Carbonic anhydrase 13 (Mus musculus, UniProt Q9D6N1) in what follows.
pKi: −log10 of the molar value.
Measurement name: pKi

Smiles input | Endpoint value
O=C1C=CC[C@H](C[C@H](F)CCc2ccc(O)cc2)O1 | 6.02
O=C1C=CC[C@H](C[C@@H](O)CCc2ccc(O)cc2)O1 | 5.03

----------
pKi: −log10 of the molar value.
The reader will find pKi measurements below, all made with UniProt:O43570.
Sequence (O43570 whole entry): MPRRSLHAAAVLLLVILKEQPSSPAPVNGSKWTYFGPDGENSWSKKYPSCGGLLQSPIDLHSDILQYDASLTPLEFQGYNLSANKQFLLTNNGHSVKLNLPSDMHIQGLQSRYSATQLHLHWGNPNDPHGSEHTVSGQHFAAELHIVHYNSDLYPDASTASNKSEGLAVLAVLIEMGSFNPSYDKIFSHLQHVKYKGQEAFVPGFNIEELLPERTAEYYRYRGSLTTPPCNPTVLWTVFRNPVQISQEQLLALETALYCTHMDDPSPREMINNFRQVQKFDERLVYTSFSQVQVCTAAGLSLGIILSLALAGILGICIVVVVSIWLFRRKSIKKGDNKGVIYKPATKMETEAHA

Smiles input | pKi
O=C1C=CC[C@H](C[C@@H](O)CCc2ccc(O)cc2O)O1 | 4.61
O=C1C=CC[C@H](C[C@H](F)CCc2ccc(O)cc2)O1 | 5.83
